B1: FBXO39 (parent)
chain: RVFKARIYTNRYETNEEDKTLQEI

# Variants of: B1
# protocol-summary: protein stability index of a GFP-peptide fusion (GPS, HEK-293T) (PSI 1-6); higher = more stable;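 note: lentivirally expressed fusions sorted by FACS into six bins by GFP to DsRed ratio, PSI derived from sequencing read proportions per bin multiplied by bin number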
# experimental-conditions: c terminus: a fixed tail appended
Recorded measurements of protein stability index, one per entry
readout: protein stability index

- mutation-annotation: "V2S"
  reported: 4.22
- mutation-annotation: "N15A"
  reported: 2.92
- mutation-annotation: "Q22N"
  reported: 2.49
- mutation-annotation: "V2T"
  reported: 2.89
- mutation-annotation: "I24R"
  reported: 3.22
- mutation-annotation: "E23V"
  reported: 2.41
- mutation-annotation: "E13Y"
  reported: 1.69
- mutation-annotation: "T14P"
  reported: 3.2
- mutation-annotation: "R6A"
  reported: 3.66
- mutation-annotation: "F3P"
  reported: 4.55
- mutation-annotation: "Y8N"
  reported: 3.97
